Target System: Human GPR8 receptor protein (human, UniProt P48146 1-333)
Sequence (P48146 whole entry): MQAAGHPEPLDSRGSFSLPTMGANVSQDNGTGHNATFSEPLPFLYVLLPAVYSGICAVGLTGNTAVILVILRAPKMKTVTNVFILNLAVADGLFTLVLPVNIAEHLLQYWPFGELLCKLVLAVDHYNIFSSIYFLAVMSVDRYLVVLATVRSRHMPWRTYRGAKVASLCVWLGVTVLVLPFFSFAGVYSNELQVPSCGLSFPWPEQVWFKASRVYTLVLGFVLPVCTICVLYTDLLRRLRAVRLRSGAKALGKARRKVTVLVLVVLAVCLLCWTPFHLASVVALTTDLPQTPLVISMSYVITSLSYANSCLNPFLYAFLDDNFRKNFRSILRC
Experiment Description: cell-based or functional assay
No end group written: not given here.
Parameter: Promoting activity to GTPγS binding (EC50 nM)
Answers are plain numbers, in nM.

{"Binder": "WYKHTASPRYHTVGRAAGLLMGL (also called pGPR8L(1-23); porcine homologue of GPR8 ligand peptide) [porcine GPR8 ligand (1-23)]", "Assay Value": 1.5}
{"Binder": "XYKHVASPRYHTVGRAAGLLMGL (N-terminal Fmoc (N-9-fluorenylmethoxycarbonyl) on Trp 1, also called Fmoc-hGPR8L(1-23); Human GPR8 ligand (1-23) modified by Fmoc) [Fmoc-added Human GPR8L (1-23)]", "Assay Value": 240}
{"Binder": "WYKHVASPRYHTVGRAAGLL (also called hGPR8L(1-20)) [Human GPR8 ligand (1-20)]", "Assay Value": 0.86}
{"Binder": "WYKHVASPRYHTVGRAAGLLXGL (methionine sulfoxide, Met(O), at position 21, also called [MET(O)]-hGPR8L(1-23)) [Human GPR8 ligand (1-23) oxidant]", "Assay Value": 1.4}
{"Binder": "Ac-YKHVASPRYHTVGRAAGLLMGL (also called Ac-hGPR8L(2-23)) [[N-Acetyl-Tyr^2]-Human GPR8 ligand (2-23)]", "Assay Value": 7200}

Quick one: give me Promoting activity to GTPγS binding (EC50 nM) for each item below, same order please.
1. HVASPRYHTVGRAAGLLMGL (also called hGPR8L(4-23)) [Human GPR8 ligand (4-23)]
2. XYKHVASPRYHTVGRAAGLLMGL (D-Trp at position 1, also called [D-Trp^1]-hGPR8L(1-23)) [[D-Trp^1]-Human GPR8 ligand (1-23)]
3. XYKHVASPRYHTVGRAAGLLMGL (N-alpha-acetyl on Trp 1, also called Ac-hGPR8L(1-23)) [[N^α-Acetyl-Trp^1]-Human GPR8 ligand (1-23)]
4. WYKHVASPRYHTVGRAAGL (also called hGPR8L(1-19)) [Human GPR8 ligand (1-19)]

Result:
1. 6700
2. 7.1
3. 14
4. 1000
